target: acetylcholinesterase (Homo sapiens, UniProt P22303); experiment: biochemical; conditions: IC50, acetyl cholinesterase inhibition, S 5 mM
Sequence (P22303 32-614, species assumed): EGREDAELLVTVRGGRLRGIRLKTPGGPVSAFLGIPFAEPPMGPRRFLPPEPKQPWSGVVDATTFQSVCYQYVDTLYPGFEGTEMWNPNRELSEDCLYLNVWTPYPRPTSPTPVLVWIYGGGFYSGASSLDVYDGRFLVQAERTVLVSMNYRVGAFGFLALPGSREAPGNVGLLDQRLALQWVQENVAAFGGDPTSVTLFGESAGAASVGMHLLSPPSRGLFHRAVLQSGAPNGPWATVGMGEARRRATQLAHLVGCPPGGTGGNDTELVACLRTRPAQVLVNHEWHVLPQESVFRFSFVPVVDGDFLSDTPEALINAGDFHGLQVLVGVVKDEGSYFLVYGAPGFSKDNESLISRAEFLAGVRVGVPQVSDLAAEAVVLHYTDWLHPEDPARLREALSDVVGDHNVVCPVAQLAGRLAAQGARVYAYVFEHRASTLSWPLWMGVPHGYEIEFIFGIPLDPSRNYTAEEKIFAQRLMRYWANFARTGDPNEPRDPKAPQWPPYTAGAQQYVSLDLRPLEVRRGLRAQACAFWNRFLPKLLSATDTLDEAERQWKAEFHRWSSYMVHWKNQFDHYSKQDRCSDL
Observable: pIC50
Answers are plain numbers, as −log10 of the molar value.

Task: Name the recorded pIC50 of the compound listed here: CNC(=O)Oc1ccc2c3c1OC1CC(O)C=CC31CCN(C)C2 (stereo not shown)
Output: 8.70

###

target: acetylcholinesterase (Homo sapiens, UniProt P22303); test: Acetylcholinesterase Inhibition Assay (other cholinesterase activity tests, may be less reliable); type: biochemical; conditions: 10^−7; results may be less reliable
// assign 1 if % Inhibition at 10^−7 falls strictly below 10%, else -1 (ties count as -1)

Look over these answered cases.
>>> discrete_label("CCCCCC(=O)O[C@H]1C=C[C@@]23CCN(C)Cc4ccc(OC)c(c42)O[C@H]3C1 [hexanoic ester]")
-1
>>> discrete_label("COc1ccc2c3c1O[C@H]1C[C@@H](OC(=O)CC(C)C)C=C[C@@]31CCN(C)C2 [iso-valeroyl ester]")
-1
>>> discrete_label("CCNC(=O)O[C@H]1C=C[C@@]23CCN(C)Cc4ccc(OC)c(c42)O[C@H]3C1 [ethyl carbaxnate]")
1
>>> discrete_label("COc1ccc2c3c1O[C@H]1C[C@@H](OC(=O)C4CC4)C=C[C@@]31CCN(C)C2 [cyclopropyl carbinol ester]")
1
>>> discrete_label("CCCOC(N)=O [n-propyl carbamate]")
-1

Task: Lab note: confirm whether the reported % Inhibition at 10^−7 for this molecule is below 10%, equality not counting. molecule: COc1ccc2c3c1O[C@H]1C[C@@H](OC(=O)c4ccccc4F)C=C[C@@]31CCN(C)C2 [o-F-benzoic ester]
Output: -1

Task: Just wondering, is % Inhibition at 10^−7 of CC(C)OC(N)=O [isopropyl carbamate] below 10%?
Output: 1

###

target: acetylcholinesterase (Homo sapiens); test: Inhibition of acetylcholinesterase, procedure of Ellman (acetylthiocholine substrate, photometric); assay type: biochemical; conditions: 10^−5 molar
Observable: inhibition of acetylcholinesterase at concentration 10^−5
Answers are plain numbers.

>>> readout_number("COc1ccc2c3c1O[C@H]1C[C@@H](O[Si](C(C)C)(C(C)C)C(C)C)C=C[C@@]31CCN(C)C2")
17

We now examine a further compound.
Task: Specify measured inhibition of acetylcholinesterase at concentration 10^−5 for CCCCNC(=O)O[C@@H]1C=CC23CCN(C)Cc4ccc(OC)c(c42)O[C@@H]3C1 (stereo partly shown) [galanthamine n-butyl carbamate] .
Output: 75

###

molecular target: acetylcholinesterase (Homo sapiens, UniProt P22303); test: Acetylcholinesterase Inhibition Assay (other cholinesterase activity tests, may be less reliable); type: biochemical; conditions: 10^−6; results may be less reliable
Decide by % Inhibition at 10^−6: equal to or exceeding 40% means Met, less means Not met.

>>> discrete_label("CCCCC(=O)O[C@H]1C=C[C@@]23CCN(C)Cc4ccc(OC)c(c42)O[C@H]3C1 [valeric ester]")
"Not met"

Task: Dear colleague, could you confirm whether CCCCCC(=O)O[C@H]1C=C[C@@]23CCN(C)Cc4ccc(OC)c(c42)O[C@H]3C1 [hexanoic ester] has % Inhibition at 10^−6 at or above 40%?
Output: Not met

Task: Please check the record CCCCNC(=O)O[C@@H]1C=CC23CCN(C)Cc4ccc(OC)c(c42)O[C@@H]3C1 (stereo partly shown) [galanthamine n-butyl carbamate] and state if its % Inhibition at 10^−6 is at or above 40%.
Output: Not met

Task: I'd appreciate it if you could say whether CCCCCCCCOC(N)=O [octyl carbamate] has % Inhibition at 10^−6 at least equal to 40%.
Output: Not met

Task: Form field: % Inhibition at 10^−6 at least 40%? Entry: COc1ccc2c3c1O[C@H]1C[C@@H](OC(=O)C4CC4)C=C[C@@]31CCN(C)C2 [cyclopropyl carbinol ester]
Output: Not met

Task: Tell me whether % Inhibition at 10^−6 is at least 40% here: CCCOC(N)=O [n-propyl carbamate]
Output: Met

Task: # check: % Inhibition at 10^−6 of CCNC(=O)O[C@H]1C=C[C@@]23CCN(C)Cc4ccc(OC)c(c42)O[C@H]3C1 [ethyl carbaxnate] is greater than or equal to 40%
Output: Met

Task: For this compound, is measured % Inhibition at 10^−6 40% or higher? CC(C)OC(N)=O [isopropyl carbamate]
Output: Not met

Cited source: patent US20040023984A1
